- subject-of-test: Fuc(a1-3)[GalNAc(b1-4)]GlcNAc
- assay-remarks: glycan array binding signal (z-score within array); higher = stronger binding
- experimental-parameters: glycan notation: IUPAC condensed, linker removed
This is one part of a sample in which the strongest signals are shown more often than they occur.
What glycan array binding signal (z-score) was measured for each of the following?

query: glycan array binding signal (z-score) for LecB PA14 (Pseudomonas aeruginosa) (protein) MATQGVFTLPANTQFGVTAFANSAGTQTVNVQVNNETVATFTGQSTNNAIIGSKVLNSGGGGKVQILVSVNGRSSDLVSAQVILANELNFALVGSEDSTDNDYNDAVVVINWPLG ?
result: 5.42

query: glycan array binding signal (z-score) for Epa3 (Candida glabrata), Q6VBI8_CANGB (protein) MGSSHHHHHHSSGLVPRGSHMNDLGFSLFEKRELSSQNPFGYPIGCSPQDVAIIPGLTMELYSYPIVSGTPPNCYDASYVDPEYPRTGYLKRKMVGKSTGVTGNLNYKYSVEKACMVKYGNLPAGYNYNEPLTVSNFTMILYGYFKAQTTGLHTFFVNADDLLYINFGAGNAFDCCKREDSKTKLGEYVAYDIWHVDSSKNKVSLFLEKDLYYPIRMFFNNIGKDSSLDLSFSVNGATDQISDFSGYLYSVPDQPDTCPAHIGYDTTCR ?
result: 0.843

query: glycan array binding signal (z-score) for RBMC2 (Vibrio cholerae) (protein) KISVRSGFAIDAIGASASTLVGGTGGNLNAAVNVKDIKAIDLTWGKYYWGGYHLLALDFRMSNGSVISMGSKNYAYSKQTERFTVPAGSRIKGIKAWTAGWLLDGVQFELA ?
result: -0.311
